Test system: PC-3
METHOD: Cytotoxicity against human PC3 cells assessed as reduction in cell viability after 72 hrs by MTT assay
Assay type: functional, cell-based
CONDITION INFO: PC-3, 72 h
pIC50: −log10 of the molar value.
Measured pIC50, listed per entry for reference.

>  <SMILES NOTATION>
O=C1c2ccccc2C(=O)c2c(-c3ccc(Br)cc3)coc21

>  <MEASURED TARGET>
PC-3

>  <pIC50>
5.58

$$$$
>  <SMILES NOTATION>
O=C1c2ccccc2C(=O)c2c(-c3cccc4c3OCO4)coc21

>  <MEASURED TARGET>
PC-3

>  <pIC50>
5.60

$$$$
>  <SMILES NOTATION>
COc1ccc(-n2cc(-c3ccc(Cl)cc3)c3c2C(=O)c2ccccc2C3=O)cc1

>  <MEASURED TARGET>
PC-3

>  <pIC50>
5.06

$$$$
>  <SMILES NOTATION>
CCOC(=O)Cc1c(-c2ccc(OC)c(OC)c2)c2c(n1-c1ccc(Cl)cc1)C(=O)c1ccccc1C2=O

>  <MEASURED TARGET>
PC-3

>  <pIC50>
< 5.02

$$$$
>  <SMILES NOTATION>
CCOC(=O)Cc1oc2c(c1-c1ccco1)C(=O)c1ccccc1C2=O

>  <MEASURED TARGET>
PC-3

>  <pIC50>
< 4.85

$$$$
>  <SMILES NOTATION>
O=C1c2ccccc2C(=O)c2c(-c3cccs3)coc21

>  <MEASURED TARGET>
PC-3

>  <pIC50>
5.31

$$$$
>  <SMILES NOTATION>
CCOC(=O)Cc1oc2c(c1-c1ccc(OC)c(OC)c1)C(=O)c1ccccc1C2=O

>  <MEASURED TARGET>
PC-3

>  <pIC50>
< 4.92

$$$$
>  <SMILES NOTATION>
CCCCn1cc(-c2ccc(Cl)cc2)c2c1C(=O)c1ccccc1C2=O

>  <MEASURED TARGET>
PC-3

>  <pIC50>
< 4.86

$$$$
>  <SMILES NOTATION>
COc1ccc(-n2cc(-c3ccc(F)cc3)c3c2C(=O)c2ccccc2C3=O)cc1

>  <MEASURED TARGET>
PC-3

>  <pIC50>
< 4.90

$$$$
>  <SMILES NOTATION>
CCOC(=O)Cc1oc2c(c1-c1ccc(OC)cc1)C(=O)c1ccccc1C2=O

>  <MEASURED TARGET>
PC-3

>  <pIC50>
< 4.89

$$$$
>  <SMILES NOTATION>
COc1ccc(-c2cn(-c3ccc(F)cc3)c3c2C(=O)c2ccccc2C3=O)cc1

>  <MEASURED TARGET>
PC-3

>  <pIC50>
< 4.88

$$$$
>  <SMILES NOTATION>
CCOC(=O)Cc1oc2c(c1-c1cccc3ccccc13)C(=O)c1ccccc1C2=O

>  <MEASURED TARGET>
PC-3

>  <pIC50>
< 4.91

$$$$
>  <SMILES NOTATION>
COc1ccc(-c2coc3c2C(=O)c2ccccc2C3=O)cc1

>  <MEASURED TARGET>
PC-3

>  <pIC50>
5.30

$$$$
>  <SMILES NOTATION>
COc1ccc(-c2coc3c2C(=O)c2ccccc2C3=O)cc1OC

>  <MEASURED TARGET>
PC-3

>  <pIC50>
5.41

$$$$
>  <SMILES NOTATION>
CCOC(=O)Cc1c(-c2ccc(C)cc2)c2c(n1-c1ccc(C)cc1)C(=O)c1ccccc1C2=O

>  <MEASURED TARGET>
PC-3

>  <pIC50>
< 4.97

$$$$
>  <SMILES NOTATION>
CCOC(=O)Cc1c(-c2ccc(OC)c(OC)c2)c2c(n1-c1cccc(Br)c1)C(=O)c1ccccc1C2=O

>  <MEASURED TARGET>
PC-3

>  <pIC50>
< 5.06

$$$$

* * *

Measured pIC50, listed per entry for reference.
Tested on: SF-295
METHOD: Cytotoxicity against human SF295 cells assessed as reduction in cell viability after 72 hrs by MTT assay
CONDITION INFO: SF-295, 72 h
pIC50: −log10 of the molar value.
MEASURED PARAMETER: pIC50

>  <SMILES NOTATION>
CSc1ccc(-c2coc3c2C(=O)c2ccccc2C3=O)cc1

>  <MEASURED TARGET>
SF-295

>  <OP>
=

>  <REPORTED RESULT>
5.46

$$$$
>  <SMILES NOTATION>
Cc1ccc(-c2cn(-c3ccc(C)cc3)c3c2C(=O)c2ccccc2C3=O)cc1

>  <MEASURED TARGET>
SF-295

>  <OP>
<

>  <REPORTED RESULT>
4.95

$$$$
>  <SMILES NOTATION>
COc1ccc(-n2cc(-c3ccc(Cl)cc3)c3c2C(=O)c2ccccc2C3=O)cc1

>  <MEASURED TARGET>
SF-295

>  <OP>
=

>  <REPORTED RESULT>
5.37

$$$$
>  <SMILES NOTATION>
COc1ccc(-n2cc(-c3ccc(C)cc3)c3c2C(=O)c2ccccc2C3=O)cc1

>  <MEASURED TARGET>
SF-295

>  <OP>
<

>  <REPORTED RESULT>
4.90

$$$$
>  <SMILES NOTATION>
COc1ccc(-n2cc(-c3ccc(F)cc3)c3c2C(=O)c2ccccc2C3=O)cc1

>  <MEASURED TARGET>
SF-295

>  <OP>
<

>  <REPORTED RESULT>
4.90

$$$$
>  <SMILES NOTATION>
CCOC(=O)Cc1c(-c2cc(OC)c(OC)c(OC)c2)c2c(n1-c1cccc(Br)c1)C(=O)c1ccccc1C2=O

>  <MEASURED TARGET>
SF-295

>  <OP>
<

>  <REPORTED RESULT>
5.08

$$$$
>  <SMILES NOTATION>
O=C1c2ccccc2C(=O)c2c(-c3ccc(F)cc3)coc21

>  <MEASURED TARGET>
SF-295

>  <OP>
=

>  <REPORTED RESULT>
5.20

$$$$
